System: RAW-Dual (murine macrophage reporter line)
Assay: IRF reporter (Lucia luciferase) activity fold change vs agonist alone; higher = enhanced IRF activity
Details: modulator concentration 10 µM; agonist: MPLA […]
value-type: IRF reporter

> print(dat)
                                    molecule    value.type  experimental.result
 1  Cc1nonc1OC(C)CNc1ccc([N+](=O)[O-])cc1 (configuration not stated)  IRF reporter                0.843
 2  CC(C)(C)C1CCc2c(sc(NC(=O)c3cccs3)c2C(=O)N2CCCC2)C1 (configuration not stated)  IRF reporter                 1.03
 3  COc1ccc(C2CC(=O)C(=Cc3c[nH]c4ccccc34)C(=O)C2)cc1 (configuration not stated)  IRF reporter                  1.1
 4          Cc1cc(OCCCOc2cccc3cccnc23)ccc1Cl  IRF reporter                 1.03
 5      O=C(NCCN1CCN(c2ccc(F)cc2)CC1)c1ccno1  IRF reporter                0.929
 6  CCOC(=O)C1=C(CC)NC2=C(C(=O)CCC2)C1c1ccccc1I (configuration not stated)  IRF reporter                 1.05
 7         COc1cc(CNCc2ccc3ccccc3c2)cc(OC)c1  IRF reporter                 2.05
 8  NC(Cc1cc(I)c(Oc2cc(I)c(O)c(I)c2)c(I)c1)C(=O)O (configuration not stated)  IRF reporter                 1.12
 9  CC1=C(C(=O)OCC2CCCO2)C(c2ccc([N+](=O)[O-])cc2)C2=C(CC(C)(C)CC2=O)N1 (configuration not stated)  IRF reporter                0.984
10  CC[C@H](Nc1ncnc2[nH]cnc12)c1nc2cccc(F)c2c(=O)n1-c1ccccc1  IRF reporter                0.997
11  CCC(=O)Nc1ccc(S(=O)(=O)N2CCSC(c3ccccc3C)CC2)c(C)c1 (configuration not stated)  IRF reporter                0.988
12  Cc1nc(-c2ccc(S(=O)(=O)NC3CCc4nc(N(C)C)ncc4C3)cc2)co1 (configuration not stated)  IRF reporter                 1.35

Attribution: the supplement of paper PMC10646978
